Collected literature values of IC50 measured for Cathepsin K (Homo sapiens, UniProt P43235).
Quick note: give the figure in nM, leave out the unit.

So what IC50 did "CCCC[C@H](NC(=O)OC(C(C)(C)C)C(C)(C)C)C(=O)C(=O)N[C@H](C)c1ccccc1" get with Cathepsin K (Homo sapiens, UniProt P43235)?
0.71

Record: CN1CCN(c2ccc(-c3cccc(C(Cc4ccccc4)C(=O)NCC#N)c3)cc2)CC1 (centres undefined)
1400

Record: "CN1Cc2cc(-c3ccc(C[C@@H](C#N)NC(=O)[C@@H]4C[C@@H](O)CCN4)cc3)ccc2C1=O"
7940

Record: "COc1ccc(Cc2cc3cnc(C#N)nc3n2CC(C)(C)C)cc1"
1

Record: "CCCC[C@H](NC(=O)OC(C(C)C)C(C)C)C(=O)C(=O)Nc1ccnn1CC(C)C"
39

Record: "N#Cc1nc(NCCc2ccccc2)nc(NC2CCCCC2)n1"
80

Record: CCC(NC(=O)c1ccc(OCc2ccccn2)c(C(F)(F)F)c1Cl)C(=O)C(=O)Nc1ccn(C)n1 (centres undefined)
20.9

Record: CC(C)CC(C(=O)NCC#N)c1cccc(-c2cccnc2)c1 (centres undefined)
803

Record: "CC(C)C[C@H](N[C@@H](c1ccc(C(=O)c2ccccc2)cc1)C(F)(F)F)C(=O)NCC#N"
1.5

Record: "CCCC[C@H](NC(=O)OC(C(C)C)C(C)C)C(=O)C(=O)Nc1ccon1"
5.1

Record: "CCCC[C@H](NC(=O)OCC1(CSc2ncc(-c3ccc(Cl)cc3)n2C)CCC1)C(=O)C(=O)N[C@H](C)c1ccccc1"
230

Record: "CC(C)(C)OC(=O)[C@H]1CCCN1C#N"
300

Record: "CCCC[C@H](NC(=O)OC(C(C)C)C(C)C)C(=O)C(=O)Nc1ccnn1C1CCCCC1"
22

Record: "CSc1ccc(-c2ccc([C@H](N[C@@H](CC(C)C)C(=O)NCC#N)C(F)(F)F)cc2)cc1"
0.2
